Test system: 292921-168-R-J2-PDC complex spheroid growth
Test: Anticancer human tumor 292921-168-R-J2-PDC patient-derived pancreatic carcinoma cell line growth inhibition [AhR]
Conditions: second compound 1 µM; first compound 0.00316 µM; stronger effect = lower value
Kindly supply the reported viability, T/C values for the records listed here.

What the record says about CC[C@@]1(O)C(=O)OCc2c1cc1n(c2=O)Cc2cc3c(CN(C)C)c(O)ccc3nc2-1 + Cc1cncc(-c2nc(NCCc3c[nH]c4ccccc34)c3ncn(C(C)C)c3n2)c1 : viability, T/C is 80.9%

What the record says about Cn1ncnc1C1c2n[nH]c(=O)c3cc(F)cc(c23)NC1c1ccc(F)cc1 (stereo unspecified) + Cc1ccccc1N=Nc1ccc(NC(=O)c2ccnn2C)c(C)c1 : viability, T/C is 80.3%

What the record says about Nc1ncn(C2CC(O)C(CO)O2)c(=O)n1 (stereo unspecified) + Cc1ccccc1N=Nc1ccc(NC(=O)c2ccnn2C)c(C)c1 : viability, T/C is 80.1%

What the record says about CC[C@@]1(O)C(=O)OCc2c1cc1n(c2=O)Cc2cc3c(CN(C)C)c(O)ccc3nc2-1 + CC(CO)NC(=O)c1cc(-c2ccc(Cl)cc2)nn(-c2cnn(C)c2)c1=O : viability, T/C is 99.5%

What the record says about Nc1ncn(C2CC(O)C(CO)O2)c(=O)n1 (stereo unspecified) + Cc1cncc(-c2nc(NCCc3c[nH]c4ccccc34)c3ncn(C(C)C)c3n2)c1 : viability, T/C is 80.5%

What the record says about Nc1ncn(C2CC(O)C(CO)O2)c(=O)n1 (stereo unspecified) + CC(CO)NC(=O)c1cc(-c2ccc(Cl)cc2)nn(-c2cnn(C)c2)c1=O : viability, T/C is 97.5%

----------
System: 292921-168-R-J2-PDC complex spheroid growth
Assay: Anticancer human tumor 292921-168-R-J2-PDC cell line growth inhibition [AhR];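 also: spheroids exposed to compounds for seven days after three days of growth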
Conditions: second compound 1 µM; first compound 0.003 µM; stronger effect = lower value
quantity_kind: viability, T/C

Fill in: 292921-168-R-J2-PDC complex spheroid growth viability, T/C for Nc1ncn(C2CC(O)C(CO)S2)c(=O)n1 (stereo unspecified) + Cc1cncc(-c2nc(NCCc3c[nH]c4ccccc34)c3ncn(C(C)C)c3n2)c1 = 74%

Fill in: 292921-168-R-J2-PDC complex spheroid growth viability, T/C for CCc1c2c(nc3ccc(O)cc13)-c1cc3c(c(=O)n1C2)COC(=O)[C@]3(O)CC + CC(CO)NC(=O)c1cc(-c2ccc(Cl)cc2)nn(-c2cnn(C)c2)c1=O = 43.3%

Fill in: 292921-168-R-J2-PDC complex spheroid growth viability, T/C for CC(C)CC(NC(=O)C(Cc1ccccc1)NC(=O)c1cnccn1)B(O)O (stereo unspecified) + Cc1cncc(-c2nc(NCCc3c[nH]c4ccccc34)c3ncn(C(C)C)c3n2)c1 = 95.5%

Fill in: 292921-168-R-J2-PDC complex spheroid growth viability, T/C for Nc1ncn(C2CC(O)C(CO)S2)c(=O)n1 (stereo unspecified) + CC(CO)NC(=O)c1cc(-c2ccc(Cl)cc2)nn(-c2cnn(C)c2)c1=O = 103%

Fill in: 292921-168-R-J2-PDC complex spheroid growth viability, T/C for CC(C)CC(NC(=O)C(Cc1ccccc1)NC(=O)c1cnccn1)B(O)O (stereo unspecified) + Cc1ccccc1N=Nc1ccc(NC(=O)c2ccnn2C)c(C)c1 = 94.3%

Fill in: 292921-168-R-J2-PDC complex spheroid growth viability, T/C for CC(C)CC(NC(=O)C(Cc1ccccc1)NC(=O)c1cnccn1)B(O)O (stereo unspecified) + CC(CO)NC(=O)c1cc(-c2ccc(Cl)cc2)nn(-c2cnn(C)c2)c1=O = 102%
